# Measurement Target: 5-HT2A serotonin receptors (Homo sapiens, UniProt P28223)
# Sequence (P28223 whole entry): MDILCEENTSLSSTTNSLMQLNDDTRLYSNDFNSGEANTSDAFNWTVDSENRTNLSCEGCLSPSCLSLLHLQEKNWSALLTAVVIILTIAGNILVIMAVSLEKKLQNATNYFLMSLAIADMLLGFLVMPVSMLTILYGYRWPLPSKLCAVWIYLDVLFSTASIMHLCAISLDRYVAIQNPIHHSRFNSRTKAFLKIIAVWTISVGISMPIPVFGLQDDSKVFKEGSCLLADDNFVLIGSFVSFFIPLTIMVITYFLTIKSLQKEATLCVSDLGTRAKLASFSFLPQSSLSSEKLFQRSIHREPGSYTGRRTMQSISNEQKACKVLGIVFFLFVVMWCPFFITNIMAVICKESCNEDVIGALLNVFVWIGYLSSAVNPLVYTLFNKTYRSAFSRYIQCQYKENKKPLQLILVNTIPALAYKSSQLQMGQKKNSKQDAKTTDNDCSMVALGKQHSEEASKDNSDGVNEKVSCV
pKi: −log10 of the molar value.
Recorded Metric: pKi

In [3]: df
Out[3]:
                                   molecule  result
0  Cl.NCc1c[nH]c(=S)n1[C@H]1CCc2c(F)cc(F)cc2C1 [nepicastat, hydrochloride]  < 5.00

---

# Measurement Target: nitric oxide synthase
# Assay Overview: Enzyme selectivity assay
pIC50: −log10 of the molar value.
Recorded Metric: pIC50

>>> df
                                   molecule  result
0  Cl.NCc1c[nH]c(=S)n1[C@H]1CCc2c(F)cc(F)cc2C1 [nepicastat, hydrochloride]  < 5.00

---

Sequence of the target: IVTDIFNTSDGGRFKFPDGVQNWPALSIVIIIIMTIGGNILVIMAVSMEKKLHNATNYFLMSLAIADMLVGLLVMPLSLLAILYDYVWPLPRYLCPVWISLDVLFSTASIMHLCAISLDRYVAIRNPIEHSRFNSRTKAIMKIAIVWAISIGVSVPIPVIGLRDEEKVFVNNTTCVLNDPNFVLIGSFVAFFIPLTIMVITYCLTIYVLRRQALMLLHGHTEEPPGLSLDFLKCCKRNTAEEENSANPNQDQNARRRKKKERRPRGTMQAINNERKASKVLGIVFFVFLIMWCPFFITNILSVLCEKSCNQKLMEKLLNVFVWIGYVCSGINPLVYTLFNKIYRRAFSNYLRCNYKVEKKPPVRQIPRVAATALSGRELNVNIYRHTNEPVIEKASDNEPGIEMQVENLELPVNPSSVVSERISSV
pKi: −log10 of the molar value.
Recorded Metric: pKi

                                   compound  result
0  Cl.NCc1c[nH]c(=S)n1[C@H]1CCc2c(F)cc(F)cc2C1 [nepicastat, hydrochloride]  < 5.00

---

# Measurement Target: α1B adrenoceptors (Homo sapiens, UniProt P35368)
# Sequence (P35368 1-520): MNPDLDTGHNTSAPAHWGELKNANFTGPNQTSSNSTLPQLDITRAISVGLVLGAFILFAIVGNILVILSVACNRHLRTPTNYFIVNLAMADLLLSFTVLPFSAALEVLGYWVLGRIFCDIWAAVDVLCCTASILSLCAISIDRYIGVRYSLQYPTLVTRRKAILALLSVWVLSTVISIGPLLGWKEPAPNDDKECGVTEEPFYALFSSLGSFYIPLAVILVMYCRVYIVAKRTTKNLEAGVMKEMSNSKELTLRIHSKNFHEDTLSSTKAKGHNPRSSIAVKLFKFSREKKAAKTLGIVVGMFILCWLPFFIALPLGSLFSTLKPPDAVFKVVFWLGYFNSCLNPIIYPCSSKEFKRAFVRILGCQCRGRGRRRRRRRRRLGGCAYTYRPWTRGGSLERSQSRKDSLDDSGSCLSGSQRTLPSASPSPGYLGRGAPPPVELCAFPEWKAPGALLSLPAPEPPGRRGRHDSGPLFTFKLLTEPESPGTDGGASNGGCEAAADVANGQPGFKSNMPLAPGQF
pKi: −log10 of the molar value.
Recorded Metric: pKi

                                   compound  result
0  Cl.NCc1c[nH]c(=S)n1[C@H]1CCc2c(F)cc(F)cc2C1 [nepicastat, hydrochloride]  < 5.00

---

# Measurement Target: phosphodiesterase III
# Assay Overview: Enzyme selectivity assay
Recorded Metric: IC50

                                   compound   result
0  Cl.NCc1c[nH]c(=S)n1[C@H]1CCc2c(F)cc(F)cc2C1 [nepicastat, hydrochloride]  > 10 µM

---

# Measurement Target: HMG-CoA reductase (Homo sapiens, UniProt P04035)
# Sequence (P04035 whole entry, species assumed): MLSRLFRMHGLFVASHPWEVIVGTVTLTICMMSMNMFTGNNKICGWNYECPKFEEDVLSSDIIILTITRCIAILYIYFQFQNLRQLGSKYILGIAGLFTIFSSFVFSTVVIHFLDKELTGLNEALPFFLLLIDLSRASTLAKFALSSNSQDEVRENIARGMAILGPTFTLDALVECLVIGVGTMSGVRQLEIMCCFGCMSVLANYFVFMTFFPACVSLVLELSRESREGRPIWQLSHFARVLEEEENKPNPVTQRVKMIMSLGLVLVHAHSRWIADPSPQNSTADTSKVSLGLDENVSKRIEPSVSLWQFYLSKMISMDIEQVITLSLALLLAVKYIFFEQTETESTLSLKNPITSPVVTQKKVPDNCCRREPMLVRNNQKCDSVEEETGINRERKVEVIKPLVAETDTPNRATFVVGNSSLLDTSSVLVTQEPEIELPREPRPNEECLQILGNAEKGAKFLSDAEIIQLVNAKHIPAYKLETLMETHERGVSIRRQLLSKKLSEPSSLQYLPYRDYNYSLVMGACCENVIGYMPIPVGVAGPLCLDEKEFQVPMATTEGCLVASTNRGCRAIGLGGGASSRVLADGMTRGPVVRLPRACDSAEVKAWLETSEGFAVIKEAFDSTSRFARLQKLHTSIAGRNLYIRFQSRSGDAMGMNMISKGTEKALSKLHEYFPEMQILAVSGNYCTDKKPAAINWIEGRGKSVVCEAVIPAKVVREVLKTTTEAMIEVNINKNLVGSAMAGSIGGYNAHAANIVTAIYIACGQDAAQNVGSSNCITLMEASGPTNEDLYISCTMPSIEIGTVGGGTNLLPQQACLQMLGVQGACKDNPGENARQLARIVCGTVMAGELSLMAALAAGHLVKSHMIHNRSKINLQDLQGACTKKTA
pIC50: −log10 of the molar value.
Recorded Metric: pIC50

                                   molecule  result
0  Cl.NCc1c[nH]c(=S)n1[C@H]1CCc2c(F)cc(F)cc2C1 [nepicastat, hydrochloride]  < 5.00

---

# Measurement Target: bovine dopamine β-hydroxylase (Bos taurus, UniProt P15101)
# Sequence (P15101 1-610): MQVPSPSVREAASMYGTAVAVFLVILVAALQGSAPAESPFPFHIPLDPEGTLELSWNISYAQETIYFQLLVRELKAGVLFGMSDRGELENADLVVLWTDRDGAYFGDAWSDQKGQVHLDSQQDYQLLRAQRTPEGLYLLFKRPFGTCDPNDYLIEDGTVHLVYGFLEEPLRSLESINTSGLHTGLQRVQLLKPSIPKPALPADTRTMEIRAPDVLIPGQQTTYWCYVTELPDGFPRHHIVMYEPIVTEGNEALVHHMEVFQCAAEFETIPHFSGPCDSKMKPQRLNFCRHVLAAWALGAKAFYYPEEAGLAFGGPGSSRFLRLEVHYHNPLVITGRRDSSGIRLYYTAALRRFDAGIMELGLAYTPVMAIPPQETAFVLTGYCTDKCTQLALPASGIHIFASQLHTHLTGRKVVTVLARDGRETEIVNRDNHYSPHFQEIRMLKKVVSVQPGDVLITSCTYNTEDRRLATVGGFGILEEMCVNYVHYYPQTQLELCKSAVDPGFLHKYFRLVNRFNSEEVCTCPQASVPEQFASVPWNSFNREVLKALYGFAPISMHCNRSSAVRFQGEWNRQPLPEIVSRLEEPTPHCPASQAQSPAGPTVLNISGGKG
Recorded Metric: IC50 (nM)

>>> df
                                   molecule  recorded_metric  recorded_number
0  Fc1cc(F)cc(Cn2cc[nH]c2=S)c1 [SKF-102698, reference compound]             IC50               67

---

# Measurement Target: phospholipase A2
# Assay Overview: Enzyme selectivity assay
Recorded Metric: IC50

>>> df
                                   molecule  measurement_target   result
0  Cl.NCc1c[nH]c(=S)n1[C@H]1CCc2c(F)cc(F)cc2C1 [nepicastat, hydrochloride]    phospholipase A2  > 10 µM

---

# Measurement Target: protein kinase (non-selective)
# Assay Overview: Enzyme selectivity assay
Recorded Metric: IC50

In [3]: df
Out[3]:
                                   compound   result
0  Cl.NCc1c[nH]c(=S)n1[C@H]1CCc2c(F)cc(F)cc2C1 [nepicastat, hydrochloride]  > 10 µM

---

Protein target, amino acids: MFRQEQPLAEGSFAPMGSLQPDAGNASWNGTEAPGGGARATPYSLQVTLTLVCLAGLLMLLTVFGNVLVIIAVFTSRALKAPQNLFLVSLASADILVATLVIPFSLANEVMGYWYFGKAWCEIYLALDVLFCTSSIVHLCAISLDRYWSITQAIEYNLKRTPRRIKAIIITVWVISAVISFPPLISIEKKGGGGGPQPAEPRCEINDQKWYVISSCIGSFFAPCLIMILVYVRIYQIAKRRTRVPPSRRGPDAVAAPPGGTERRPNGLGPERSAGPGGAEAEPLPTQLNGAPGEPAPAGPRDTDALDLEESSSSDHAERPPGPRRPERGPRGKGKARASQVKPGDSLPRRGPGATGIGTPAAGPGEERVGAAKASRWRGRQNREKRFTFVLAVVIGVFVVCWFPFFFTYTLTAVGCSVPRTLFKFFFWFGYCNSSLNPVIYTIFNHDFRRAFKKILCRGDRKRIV
Recorded Metric: Ki

In [3]: df
Out[3]:
                                   compound   result
0  Cl.NCc1c[nH]c(=S)n1[C@H]1CCc2c(F)cc(F)cc2C1 [nepicastat, hydrochloride]  > 10 µM

---

# Measurement Target: cyclooxygenase-I (Homo sapiens, UniProt P23219)
# Sequence (P23219 24-599): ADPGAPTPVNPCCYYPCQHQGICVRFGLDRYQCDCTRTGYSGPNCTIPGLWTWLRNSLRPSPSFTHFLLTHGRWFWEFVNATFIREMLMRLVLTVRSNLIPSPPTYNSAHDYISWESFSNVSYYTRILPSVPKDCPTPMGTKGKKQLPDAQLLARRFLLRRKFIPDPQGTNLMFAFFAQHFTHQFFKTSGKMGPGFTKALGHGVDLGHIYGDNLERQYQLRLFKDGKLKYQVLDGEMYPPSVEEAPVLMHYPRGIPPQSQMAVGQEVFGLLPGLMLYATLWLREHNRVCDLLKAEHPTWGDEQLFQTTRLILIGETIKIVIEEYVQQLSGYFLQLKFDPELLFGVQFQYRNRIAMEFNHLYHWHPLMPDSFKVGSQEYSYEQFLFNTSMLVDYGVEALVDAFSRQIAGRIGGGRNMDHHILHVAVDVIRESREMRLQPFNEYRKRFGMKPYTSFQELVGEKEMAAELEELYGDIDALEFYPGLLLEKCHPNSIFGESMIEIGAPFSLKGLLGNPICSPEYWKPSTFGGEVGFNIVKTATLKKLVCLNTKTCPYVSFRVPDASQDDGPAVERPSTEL
Recorded Metric: IC50

>>> df
                                   compound   result
0  Cl.NCc1c[nH]c(=S)n1[C@H]1CCc2c(F)cc(F)cc2C1 [nepicastat, hydrochloride]  > 10 µM

---

# Measurement Target: neutral endopeptidase (Homo sapiens, UniProt P08473)
# Sequence (P08473 whole entry, species assumed): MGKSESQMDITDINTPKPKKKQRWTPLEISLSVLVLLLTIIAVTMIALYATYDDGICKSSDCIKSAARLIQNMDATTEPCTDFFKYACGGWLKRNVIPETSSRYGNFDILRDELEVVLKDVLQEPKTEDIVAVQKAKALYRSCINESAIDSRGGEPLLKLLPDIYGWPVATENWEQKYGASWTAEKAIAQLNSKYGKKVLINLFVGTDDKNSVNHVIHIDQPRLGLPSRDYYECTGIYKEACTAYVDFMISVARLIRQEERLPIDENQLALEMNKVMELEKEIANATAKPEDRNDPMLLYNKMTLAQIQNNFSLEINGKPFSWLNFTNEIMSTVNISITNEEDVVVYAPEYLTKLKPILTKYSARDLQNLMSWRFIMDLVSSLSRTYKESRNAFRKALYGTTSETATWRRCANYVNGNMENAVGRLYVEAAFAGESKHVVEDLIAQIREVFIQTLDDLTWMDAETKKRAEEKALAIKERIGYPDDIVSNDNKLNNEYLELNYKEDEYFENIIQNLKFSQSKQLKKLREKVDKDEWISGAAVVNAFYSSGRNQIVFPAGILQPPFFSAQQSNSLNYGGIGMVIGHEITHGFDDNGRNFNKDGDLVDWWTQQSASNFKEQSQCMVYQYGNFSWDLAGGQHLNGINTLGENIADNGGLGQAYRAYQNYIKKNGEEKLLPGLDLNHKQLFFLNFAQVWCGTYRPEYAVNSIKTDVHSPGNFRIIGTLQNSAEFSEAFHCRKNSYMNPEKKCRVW
pIC50: −log10 of the molar value.
Recorded Metric: pIC50

>>> print(df.to_string())
                                   molecule  result
0  Cl.NCc1c[nH]c(=S)n1[C@H]1CCc2c(F)cc(F)cc2C1 [nepicastat, hydrochloride]  < 5.00

---

# Measurement Target: acetyl CoA synthetase
# Assay Overview: Enzyme selectivity assay
Recorded Metric: IC50

>>> df
                                   molecule   result
0  Cl.NCc1c[nH]c(=S)n1[C@H]1CCc2c(F)cc(F)cc2C1 [nepicastat, hydrochloride]  > 10 µM

---

# Measurement Target: UniProtKB P35348
# Sequence (P35348 whole entry): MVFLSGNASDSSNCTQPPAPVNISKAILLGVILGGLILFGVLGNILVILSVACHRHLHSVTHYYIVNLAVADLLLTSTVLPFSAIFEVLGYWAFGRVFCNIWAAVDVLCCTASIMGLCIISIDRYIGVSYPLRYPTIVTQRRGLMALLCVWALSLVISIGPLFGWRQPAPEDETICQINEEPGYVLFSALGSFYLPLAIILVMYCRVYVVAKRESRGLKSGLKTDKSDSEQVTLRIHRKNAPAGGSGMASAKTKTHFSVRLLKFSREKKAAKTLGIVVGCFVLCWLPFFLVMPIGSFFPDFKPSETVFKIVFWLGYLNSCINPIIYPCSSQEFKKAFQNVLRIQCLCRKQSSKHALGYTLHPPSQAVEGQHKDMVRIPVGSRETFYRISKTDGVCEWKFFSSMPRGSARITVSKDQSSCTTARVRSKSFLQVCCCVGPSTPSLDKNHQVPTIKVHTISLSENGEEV
pKi: −log10 of the molar value.
Recorded Metric: pKi

                                   compound  recorded_metric  result
0  Cl.NCc1c[nH]c(=S)n1[C@H]1CCc2c(F)cc(F)cc2C1 [nepicastat, hydrochloride]              pKi  < 5.00
